# credit: paper PMC8162404

- system_tested: RecQ-WH (Escherichia coli, UniProt P15043)
- Construct: coding for residues 408– 523 of E. coli RecQ; made in house; host or cells: E. coli BL21(DE3)
- Sequence (P15043 408-523): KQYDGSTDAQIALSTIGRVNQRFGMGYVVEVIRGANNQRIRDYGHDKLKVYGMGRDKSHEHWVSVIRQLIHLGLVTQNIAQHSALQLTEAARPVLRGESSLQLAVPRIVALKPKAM
- method_summary: Pull-down assay with immobilized protein and LSM libraries
- Set-up: species or system E. coli
- cond: H14 library; 1:1 binding assumed; read-out: Surface mapping KD (apparent)
So basically: is Kd under 300 µM? Then TRUE. Not under? Then FALSE.

compound: C[C@@H](O)[C@@H](CC(=O)N[C@H]1CCCC[C@@H]1C(N)=O)NC(=O)[C@H]1CCCC[C@@H]1NC(=O)[C@H]1CCCC[C@@H]1NC(=O)C[C@H](Cc1ccccc1)NC(=O)[C@H]1CCCC[C@@H]1N [H14 FT]
system_tested: RecQ-WH (Escherichia coli, UniProt P15043)
qualitative_label: TRUE

compound: NCCCC[C@@H](CC(=O)N[C@H]1CCCC[C@@H]1C(=O)N[C@H]1CCCC[C@@H]1C(=O)N[C@H](CC(=O)N[C@H]1CCCC[C@@H]1C(N)=O)Cc1ccc(O)cc1)NC(=O)[C@H]1CCCC[C@@H]1N [H14 KY]
system_tested: RecQ-WH (Escherichia coli, UniProt P15043)
qualitative_label: FALSE

compound: CC(C)C[C@@H](CC(=O)N[C@H]1CCCC[C@@H]1C(N)=O)NC(=O)[C@H]1CCCC[C@@H]1NC(=O)[C@H]1CCCC[C@@H]1NC(=O)C[C@H](C)NC(=O)[C@H]1CCCC[C@@H]1N [H14 AL]
system_tested: RecQ-WH (Escherichia coli, UniProt P15043)
qualitative_label: FALSE

compound: CSCC[C@@H](CC(=O)N[C@H]1CCCC[C@@H]1C(=O)N[C@H]1CCCC[C@@H]1C(=O)N[C@H](CC(=O)N[C@H]1CCCC[C@@H]1C(N)=O)CC(C)C)NC(=O)[C@H]1CCCC[C@@H]1N [H14 ML]
system_tested: RecQ-WH (Escherichia coli, UniProt P15043)
qualitative_label: TRUE

compound: CC(C)[C@@H](CC(=O)N[C@H]1CCCC[C@@H]1C(=O)N[C@H]1CCCC[C@@H]1C(=O)N[C@H](CC(=O)N[C@H]1CCCC[C@@H]1C(N)=O)Cc1c[nH]c2ccccc12)NC(=O)[C@H]1CCCC[C@@H]1N [H14 VW]
system_tested: RecQ-WH (Escherichia coli, UniProt P15043)
qualitative_label: TRUE

compound: C[C@@H](O)[C@@H](CC(=O)N[C@H]1CCCC[C@@H]1C(=O)N[C@H]1CCCC[C@@H]1C(=O)N[C@H](CC(=O)N[C@H]1CCCC[C@@H]1C(N)=O)Cc1ccccc1)NC(=O)[C@H]1CCCC[C@@H]1N [H14 TF]
system_tested: RecQ-WH (Escherichia coli, UniProt P15043)
qualitative_label: FALSE

compound: CC(C)C[C@@H](CC(=O)N[C@H]1CCCC[C@@H]1C(N)=O)NC(=O)[C@H]1CCCC[C@@H]1NC(=O)[C@H]1CCCC[C@@H]1NC(=O)C[C@H](CCCNC(=N)N)NC(=O)[C@H]1CCCC[C@@H]1N [H14 RL]
system_tested: RecQ-WH (Escherichia coli, UniProt P15043)
qualitative_label: TRUE

compound: NC(=O)[C@H]1CCCC[C@@H]1NC(=O)C[C@H](Cc1c[nH]c2ccccc12)NC(=O)[C@H]1CCCC[C@@H]1NC(=O)[C@H]1CCCC[C@@H]1NC(=O)C[C@H](CO)NC(=O)[C@H]1CCCC[C@@H]1N [H14 SW]
system_tested: RecQ-WH (Escherichia coli, UniProt P15043)
qualitative_label: TRUE

compound: CSCC[C@@H](CC(=O)N[C@H]1CCCC[C@@H]1C(N)=O)NC(=O)[C@H]1CCCC[C@@H]1NC(=O)[C@H]1CCCC[C@@H]1NC(=O)C[C@H](Cc1ccc(O)cc1)NC(=O)[C@H]1CCCC[C@@H]1N [H14 YM]
system_tested: RecQ-WH (Escherichia coli, UniProt P15043)
qualitative_label: TRUE

compound: CC[C@H](C)[C@@H](CC(=O)N[C@H]1CCCC[C@@H]1C(N)=O)NC(=O)[C@H]1CCCC[C@@H]1NC(=O)[C@H]1CCCC[C@@H]1NC(=O)C[C@@H](NC(=O)[C@H]1CCCC[C@@H]1N)C(C)C [H14 VI]
system_tested: RecQ-WH (Escherichia coli, UniProt P15043)
qualitative_label: FALSE
